Property: log10 of LD50; scope: individual molecules
# System: Laodelphax striatellus
# protocol description: Insecticidal activity against Laodelphax striatella Ibaraki (small brown planthopper) assessed as mortality compound treated topically on dorsal side
# assay context: topical
reported endpoint: log10 of LD50 (log10 of the value in mg/kg)

>>> observed_result("CCOc1ccc(C(C)(C)COCc2cccc(Oc3ccccc3)c2)cc1")
0.23
>>> observed_result("COP(=S)(OC)Oc1ccc([N+](=O)[O-])c(C)c1")
1.43
>>> observed_result("CC(C)C(C(=O)OC(C#N)c1cccc(Oc2ccccc2)c1)c1ccc(Cl)cc1 (stereo not given) [FENVALERATE]")
0.28
>>> observed_result("CCOP(=S)(OCC)Oc1cc(C)nc(C(C)C)n1 [DIMPYLATE]")
1.45
>>> observed_result("O=[N+]([O-])/N=C1\\NCCN1Cc1ccc(Cl)nc1")
-0.59

----------
Property: pIC50; scope: individual compounds
# target of assay: Acetylcholinesterase (Laodelphax striatella, UniProt K4JQ36)
# Sequence (K4JQ36 whole entry): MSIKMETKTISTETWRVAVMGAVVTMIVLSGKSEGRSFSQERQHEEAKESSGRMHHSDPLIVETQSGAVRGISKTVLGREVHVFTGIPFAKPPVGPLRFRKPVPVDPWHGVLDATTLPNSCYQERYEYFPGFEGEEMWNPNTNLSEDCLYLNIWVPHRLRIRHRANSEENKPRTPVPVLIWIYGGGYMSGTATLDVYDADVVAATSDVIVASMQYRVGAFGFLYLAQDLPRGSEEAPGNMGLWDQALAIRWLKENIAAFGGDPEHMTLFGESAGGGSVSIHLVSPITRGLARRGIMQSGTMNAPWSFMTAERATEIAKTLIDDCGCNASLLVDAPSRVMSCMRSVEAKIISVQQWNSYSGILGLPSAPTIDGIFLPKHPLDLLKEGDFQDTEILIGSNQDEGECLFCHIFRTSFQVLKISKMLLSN
# protocol description: Inhibition of acetylcholinesterase in Laodelphax striatella Kumamoto (small brown planthopper) homogenate preincubated for 10 min before substrate addition measured after 10 min by Ellman method
# Set-up: species or system Laodelphax striatellus
# assay context: read-out: I50
pIC50: −log10 of the molar value.
reported endpoint: pIC50

>>> observed_result("CNC(=O)Oc1cccc2ccccc12")
6.51
>>> observed_result("CCOP(=O)(OCC)Oc1cc(C)nc(C(C)C)n1")
6.40
>>> observed_result("CCC(C)c1ccccc1OC(=O)NC (centres undefined)")
6.85
>>> observed_result("COP(=O)(OC)Oc1ccc([N+](=O)[O-])c(C)c1")
6.14

----------
# Test system: Laodelphax striatellus
# protocol description: Insecticidal activity against Laodelphax striatella Ibaraki (small brown planthopper) assessed as mortality compound treated topically on dorsal side
# assay context: topical
Property: LD50; scope: individual molecules
reported endpoint: LD50 (mg/kg)

>>> observed_result("CCOC(=O)CC(SP(=S)(OC)OC)C(=O)OCC (stereo not drawn)")
130
>>> observed_result("CNC(=O)Oc1cccc2c1OC(C)(C)C2")
1.7
>>> observed_result("CCC(C)c1ccccc1OC(=O)NC (stereo not drawn)")
33

----------
# target of assay: Acetylcholinesterase (Laodelphax striatella)
# protocol description: Inhibition of acetylcholinesterase in Laodelphax striatella Ibaraki (small brown planthopper) homogenate preincubated for 10 min before substrate addition measured after 10 min by Ellman method
# Design: species or system Laodelphax striatellus
# assay context: read-out: I50
pIC50: −log10 of the molar value.
Property: pIC50; scope: individual compounds
reported endpoint: pIC50

>>> observed_result("COP(=O)(OC)Oc1ccc([N+](=O)[O-])c(C)c1")
6.44
>>> observed_result("CCOP(=O)(OCC)Oc1cc(C)nc(C(C)C)n1")
6.72
>>> observed_result("CNC(=O)Oc1cccc2ccccc12")
7.32
>>> observed_result("CCC(C)c1ccccc1OC(=O)NC (centres undefined)")
7.59

----------
# target of assay: Acetylcholinesterase (Laodelphax striatella, UniProt K4JQ36)
# protocol description: Inhibition of acetylcholinesterase in susceptible Laodelphax striatella (small brown planthopper) homogenate preincubated for 10 min before substrate addition measured after 10 min by Ellman method
# Design: species or system Laodelphax striatellus
# assay context: read-out: I50
pIC50: −log10 of the molar value.
reported endpoint: pIC50

>>> observed_result("CCOP(=O)(OCC)Oc1cc(C)nc(C(C)C)n1")
6.77
>>> observed_result("CCC(C)c1ccccc1OC(=O)NC (centres undefined)")
7.54
>>> observed_result("COP(=O)(OC)Oc1ccc([N+](=O)[O-])c(C)c1")
6.46
>>> observed_result("CNC(=O)Oc1cccc2ccccc12")
7.32

----------
Property: LD50; scope: individual molecules
# System: Laodelphax striatellus
# protocol description: Insecticidal activity against Laodelphax striatella Kumamoto (small brown planthopper) assessed as mortality compound treated topically on dorsal side
# assay context: topical
reported endpoint: LD50

>>> observed_result("CCC(C)c1ccccc1OC(=O)NC (stereo not drawn) [FENOBUCARB]")
"320 mg/kg"
>>> observed_result("CCOc1ccc(C(C)(C)COCc2cccc(Oc3ccccc3)c2)cc1 [ETOFENPROX]")
"2.7 mg/kg"
>>> observed_result("COP(=S)(OC)Oc1ccc([N+](=O)[O-])c(C)c1 [FENITROTHION]")
"38 mg/kg"
>>> observed_result("O=[N+]([O-])/N=C1\\NCCN1Cc1ccc(Cl)nc1 [IMIDACLOPRID]")
"0.61 mg/kg"
>>> observed_result("CNC(=O)Oc1cccc2c1OC(C)(C)C2 [CARBOFURAN]")
"20 mg/kg"
>>> observed_result("CCOC(=O)CC(SP(=S)(OC)OC)C(=O)OCC (stereo not drawn) [MALATHION]")
"380 mg/kg"
>>> observed_result("CCCCN(CCCC)SN(C)C(=O)Oc1cccc2c1OC(C)(C)C2 [CARBOSULFAN]")
"42 mg/kg"
>>> observed_result("CCOP(=S)(OCC)Oc1cc(C)nc(C(C)C)n1 [DIMPYLATE]")
"74 mg/kg"
